Sequence of the target: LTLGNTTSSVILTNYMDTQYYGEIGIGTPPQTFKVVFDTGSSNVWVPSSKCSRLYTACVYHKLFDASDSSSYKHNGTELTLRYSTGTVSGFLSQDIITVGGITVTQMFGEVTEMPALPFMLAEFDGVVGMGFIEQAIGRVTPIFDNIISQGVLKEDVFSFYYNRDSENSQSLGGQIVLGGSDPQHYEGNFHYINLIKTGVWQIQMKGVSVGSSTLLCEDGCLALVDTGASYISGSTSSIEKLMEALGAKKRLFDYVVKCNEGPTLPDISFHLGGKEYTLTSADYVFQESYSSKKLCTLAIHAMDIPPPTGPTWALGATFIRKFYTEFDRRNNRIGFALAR
pKi: −log10 of the molar value. Residues, ends and D or L forms follow the SMILES beside them.

compound | pKi
CC(C)C[C@H](NC(=O)[C@H](C)NC(=O)[C@@H](N)CCCNC(=N)N)C(=O)N1CCC[C@H]1C(=O)O [RALP, Arg-Ala-Leu-Pro] (H-RALP-OH) | 3.54
